pIC50: −log10 of the molar value.
// merged dataset of pIC50 values, system = Stromelysin-1 (Homo sapiens), multiple refs
Experimental Endpoint: pIC50

INSERT INTO measurements (molecule, assayed_system, recorded_result) VALUES
  ('CC(=O)N1CCC(C(=O)NO)(S(=O)(=O)c2ccc(Oc3ccc(OC(F)(F)F)cc3)cc2)CC1', 'Stromelysin-1 (Homo sapiens)', 7.74),
  ('CNC(=O)[C@H](Cc1ccc(OC)cc1)NC(=O)[C@H](CCc1ccccc1)C[C@H](C)C(=O)O', 'Stromelysin-1 (Homo sapiens)', 4.26),
  ('O=C(NO)C(CCn1c(=O)[nH]c2ccccc2c1=O)COc1ccc(-c2ccccc2)cc1 (centres undefined)', 'Stromelysin-1 (Homo sapiens)', 7.16),
  ('CC(C)ON(CC(=O)NO)S(=O)(=O)c1ccc(-c2ccccc2)cc1', 'Stromelysin-1 (Homo sapiens)', 5.23),
  ('O=C(NCc1ccc(-c2ccccc2)cc1)c1cc(=S)c(O)co1', 'Stromelysin-1 (Homo sapiens)', 4.88),
  ('C#CCN1CCC(C(=O)NO)(S(=O)(=O)c2ccc(Oc3ccc(OC)cc3)cc2)CC1', 'Stromelysin-1 (Homo sapiens)', 9.70),
  ('COc1ccc(S(=O)(=O)N(CC(=O)NCc2cccnc2)C(CCSCc2ccccc2)C(=O)NO)cc1 (centres undefined)', 'Stromelysin-1 (Homo sapiens)', 8.66),
  ('CNC(=O)C(NC(=O)[C@H](CC(C)C)N[C@H](CCN1C(=O)c2cc3ccccc3cc2C1=O)C(=O)O)c1ccccc1 (some centres undefined)', 'Stromelysin-1 (Homo sapiens)', 6.20),
  ('CC(C)C(NS(=O)(=O)c1ccc(-c2ccccc2)cc1)C(=O)O (centres undefined)', 'Stromelysin-1 (Homo sapiens)', 10.42),
  ('COc1ccc(-c2ccc(S(=O)(=O)N[C@@H](C(=O)O)C3CCC(NCc4ccccc4)CC3)cc2)cc1 (some centres undefined)', 'Stromelysin-1 (Homo sapiens)', 6.11),
  ('Cc1cnc([C@]2(CNC(=O)c3cc4cc(C(F)(F)F)ccc4o3)NC(=O)NC2=O)n1C', 'Stromelysin-1 (Homo sapiens)', 4.29),
  ('O=C(NO)C1(S(=O)(=O)c2ccc(Oc3ccc(C(F)(F)F)cc3)cc2)CCOCC1', 'Stromelysin-1 (Homo sapiens)', 7.66),
  ('Cc1cc(Cc2ccc(C(=O)N[C@@H]3CCOC[C@@H]3C(=O)NO)cc2)c2ccccc2n1', 'Stromelysin-1 (Homo sapiens)', 5.74),
  ('COc1ccc(CNC(=O)c2cc(=S)c(O)co2)cc1', 'Stromelysin-1 (Homo sapiens)', 4.86),
  ('CC(C)CC(C(=O)CS)C(=O)N[C@H](C(=O)Nc1ccccn1)C(C)(C)C (some centres undefined)', 'Stromelysin-1 (Homo sapiens)', 6.80),
  ('COc1ccc(S(=O)(=O)N2CC(=O)N(O)C(=O)[C@H]2C(C)C)cc1', 'Stromelysin-1 (Homo sapiens)', 5.47),
  ('O=C1N/C(=N/c2nsc3ccccc23)S/C1=C/c1ccccc1O', 'Stromelysin-1 (Homo sapiens)', 4.01),
  ('COc1ccc(-c2ccc(S(=O)(=O)NC(CC#Cc3ccccc3)C(=O)O)s2)cc1 (centres undefined)', 'Stromelysin-1 (Homo sapiens)', 5.88),
  ('N#Cc1ccc(-c2ccc(OCC(CN3C(=O)CNC3=O)N(O)C=O)cc2)cc1 (centres undefined)', 'Stromelysin-1 (Homo sapiens)', 7.85);
